- measured on: CPI58 as used in ITC, SEC and ATPase assays (survivin, borealin, INCENP 1–58) (human, UniProt O15392 1-142; Q9NQS7 1-58; Q53HL2 1-280, Structural Zn2+ on survivin C57/C60/H77/C84. Survivin is taken from the authors' construct entity (entity number = survivin number + 2; leading GP tag scar left out). Borealin 10-109 is inferred from)
- Sequence (A2SUH6 whole entry, chain 1 of 3): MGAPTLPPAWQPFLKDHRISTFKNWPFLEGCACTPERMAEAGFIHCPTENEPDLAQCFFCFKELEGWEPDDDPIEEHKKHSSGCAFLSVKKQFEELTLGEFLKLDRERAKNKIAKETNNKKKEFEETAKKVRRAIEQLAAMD
- Sequence (Q53HL2 10-109, chain 2 of 3): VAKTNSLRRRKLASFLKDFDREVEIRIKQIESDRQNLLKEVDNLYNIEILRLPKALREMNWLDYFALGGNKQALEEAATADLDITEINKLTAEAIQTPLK
- Sequence (Q9NQS7 1-58, chain 3 of 3): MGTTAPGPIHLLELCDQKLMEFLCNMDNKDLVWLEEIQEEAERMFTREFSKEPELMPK
- protocol notes: ITC; 400 µM peptide injected into 50 µM protein; 100 mM NaCl, 20 mM Tris-HCl pH 7.2, 1 mM DTT; 25°C; 1:1 binding model
- condition parameters: both partners purified
measured attribute: pKd
Quick note: pKd values are minus log10 of concentrations in mol/L.

Ask: Recorded pKd for ARTKQTARKSTG (histone H3 residues 1-12; also called H3T3 nonphosphopeptide; nonphosphorylated H3 peptide; source: synthetic peptide (Peptide Protein Research Ltd)) [H3 (1–12) peptide] , please?
Reply: 5.25

The origin of these recorded values is paper PMC7337490.
